Tested on: Pisum sativum
Assay: Phytotoxicity against Pisum sativum (pea)assessed as area of lesions at 1 mg/ml at 20 degC for 4 days
Assay type: organism-based
Details: lathyrus oleraceus, in vivo, 96 h
MEASURE NAME: Activity

CCC[C@H]1OC(=O)[C@@H](O)CC/C=C/[C@@H](O)[C@@H]1O (relative stereo) [Pinolide] : Non-toxic
C/C=C/C=C/C(=O)O[C@H]1CC/C=C/[C@H](O)[C@H](O)[C@@H](CCC)OC1=O [PINOLIDOXIN] : 45.5 mm2
CCC[C@H]1OC(=O)[C@H](O)CC/C=C/[C@H](O)[C@@H]1O [HERBARUMIN II] : Non-toxic
CCC[C@H]1OC(=O)[C@@H](O)CC/C=C/[C@H](O)[C@@H]1O : Non-toxic
